Values compiled from patent US6903135B2.

system: neutrophils in diluted human blood; experiment: fMLP-induced neutrophil aggregation in diluted human blood; type: cell-based; details: Homo sapiens, Neutrophil; fMLP 5×10^−7 M; read-out: IC50, inhibition of fMLP-induced neutrophil aggregation
measure: IC50 (µM)
Numbers only, in µM.

The value of IC50 measured for the compound CCCC[C@@H](O)C=CCC=CCC=CCC=CCCCC(=O)O [16(R)-HETE] turned out to be 1.2

* * *

Test system: neutrophils in diluted human blood
Experiment: fMLP-induced neutrophil aggregation in diluted human blood
Format: cell-based
Settings: 1 µM compound; N = 4
Description: Stimulated neutrophil aggregation and oxygen free radical release were examined in whole human blood using a whole-blood aggregometer-chemiluminometer (Chronolog, Haverton, Pa.) as described in Bednar et al. J. Thromb. Thrombol. 1, 179-185 (1995). […] The aggregation and chemiluminescence were simultaneously measured as changes of impedance and luminescence, respectively. The fMLP-induced chemiluminescence was calculated as the peak height of the reaction. […]
Marks after values point to notes of the source that are not given here.
measure: Aggregation (percent of inhibition from HETE untreated cells)

// known answers, use as guide
compound | result
CCCC[C@@H](O)/C=C\CCCCCCC/C=C\CCCC(=O)O [8,9,11,12-tetrahydro-16(R)-HETE] | 71.1 +/− 10.3* percent
CCCCC(O)/C=C\C/C=C\C/C=C\C/C=C\CCCC(=O)NS(C)(=O)=O [16(R)-HETE sulfonimide] | 47.6 +/− 20.5* percent
CCCC[C@@H](O)C=CCC=CCC=CCC=CCCCC(=O)O [16(R)-HETE] | 42.0 ± 11.0%

Bench note, neutrophils in diluted human blood: entry CCCC[C@@H](O)CCCCCCCCCCCCCCC(=O)O [5,6,8,9,11,12,14,15-octahydro-16(R)-HETE] , its Aggregation (percent of inhibition from HETE untreated cells) = 122.8 +/− 15.4%
